- tested-system: EZH2 within the PRC2 complex (Homo sapiens, UniProt Q15910)
- Construct: FLAG; made in house; host or cells: Sf9 cells
- Sequence (Q15910 whole entry): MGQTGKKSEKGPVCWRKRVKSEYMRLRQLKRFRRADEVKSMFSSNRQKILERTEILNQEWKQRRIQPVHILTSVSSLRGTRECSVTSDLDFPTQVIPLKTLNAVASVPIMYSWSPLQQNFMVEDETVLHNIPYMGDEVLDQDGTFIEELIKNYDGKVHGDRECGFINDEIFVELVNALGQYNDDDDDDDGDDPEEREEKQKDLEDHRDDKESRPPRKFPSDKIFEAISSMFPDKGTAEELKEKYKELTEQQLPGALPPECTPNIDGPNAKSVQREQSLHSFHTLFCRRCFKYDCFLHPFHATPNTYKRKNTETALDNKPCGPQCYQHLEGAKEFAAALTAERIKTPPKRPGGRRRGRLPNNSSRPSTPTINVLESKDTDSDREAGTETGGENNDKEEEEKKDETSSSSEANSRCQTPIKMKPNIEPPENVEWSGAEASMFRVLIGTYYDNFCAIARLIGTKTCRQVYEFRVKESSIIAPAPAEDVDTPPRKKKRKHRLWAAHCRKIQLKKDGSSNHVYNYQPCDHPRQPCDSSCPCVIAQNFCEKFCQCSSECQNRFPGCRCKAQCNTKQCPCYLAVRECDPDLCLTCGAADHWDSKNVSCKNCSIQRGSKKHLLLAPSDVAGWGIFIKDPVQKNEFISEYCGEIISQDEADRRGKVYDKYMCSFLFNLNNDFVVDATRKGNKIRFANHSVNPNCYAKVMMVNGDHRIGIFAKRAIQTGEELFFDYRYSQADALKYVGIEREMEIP
- Sequence (O75530 whole entry partner): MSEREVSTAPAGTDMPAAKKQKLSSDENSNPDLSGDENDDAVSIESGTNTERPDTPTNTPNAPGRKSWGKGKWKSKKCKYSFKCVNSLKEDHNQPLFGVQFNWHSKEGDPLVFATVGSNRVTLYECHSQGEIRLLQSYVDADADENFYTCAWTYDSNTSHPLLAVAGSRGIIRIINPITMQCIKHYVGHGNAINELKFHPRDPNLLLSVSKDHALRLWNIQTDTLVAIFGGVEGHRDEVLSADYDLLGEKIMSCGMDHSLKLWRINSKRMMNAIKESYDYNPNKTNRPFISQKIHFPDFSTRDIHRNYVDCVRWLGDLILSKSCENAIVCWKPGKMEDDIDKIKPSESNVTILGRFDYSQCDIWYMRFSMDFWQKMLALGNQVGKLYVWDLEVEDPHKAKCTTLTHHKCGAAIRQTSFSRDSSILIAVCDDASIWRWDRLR
- Sequence (Q15022 whole entry partner): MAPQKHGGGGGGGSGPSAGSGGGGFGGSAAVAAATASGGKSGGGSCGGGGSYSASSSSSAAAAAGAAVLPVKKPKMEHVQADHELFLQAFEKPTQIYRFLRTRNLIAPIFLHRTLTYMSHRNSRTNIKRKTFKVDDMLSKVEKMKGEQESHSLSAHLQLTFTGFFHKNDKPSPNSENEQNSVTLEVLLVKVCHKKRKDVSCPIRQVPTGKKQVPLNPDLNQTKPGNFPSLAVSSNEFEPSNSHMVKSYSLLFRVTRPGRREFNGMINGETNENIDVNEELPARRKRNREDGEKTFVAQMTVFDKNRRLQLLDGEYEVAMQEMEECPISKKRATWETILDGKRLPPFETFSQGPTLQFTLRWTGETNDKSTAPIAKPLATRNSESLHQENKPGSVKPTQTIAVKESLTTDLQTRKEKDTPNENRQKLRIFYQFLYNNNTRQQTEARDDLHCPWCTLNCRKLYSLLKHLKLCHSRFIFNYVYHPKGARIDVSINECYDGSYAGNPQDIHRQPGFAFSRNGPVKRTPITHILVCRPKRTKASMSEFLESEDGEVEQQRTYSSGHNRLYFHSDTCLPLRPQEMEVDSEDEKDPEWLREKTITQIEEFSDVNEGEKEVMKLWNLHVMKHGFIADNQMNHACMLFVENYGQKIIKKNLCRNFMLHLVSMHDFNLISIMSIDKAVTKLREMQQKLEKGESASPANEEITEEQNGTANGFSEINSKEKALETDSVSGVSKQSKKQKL
- Sequence (Q09028 whole entry partner): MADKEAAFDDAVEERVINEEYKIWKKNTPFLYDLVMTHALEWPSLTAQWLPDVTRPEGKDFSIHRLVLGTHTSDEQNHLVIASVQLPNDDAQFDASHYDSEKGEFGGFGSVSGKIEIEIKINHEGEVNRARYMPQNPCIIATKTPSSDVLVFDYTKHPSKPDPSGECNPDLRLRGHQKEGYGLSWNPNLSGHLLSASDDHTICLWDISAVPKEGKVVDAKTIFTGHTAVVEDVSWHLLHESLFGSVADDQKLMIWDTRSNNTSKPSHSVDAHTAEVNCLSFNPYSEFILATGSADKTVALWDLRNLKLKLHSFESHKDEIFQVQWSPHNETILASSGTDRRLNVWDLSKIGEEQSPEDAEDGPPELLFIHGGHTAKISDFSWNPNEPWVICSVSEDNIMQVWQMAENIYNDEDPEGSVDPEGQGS
- Sequence (Q6ZN18 whole entry partner): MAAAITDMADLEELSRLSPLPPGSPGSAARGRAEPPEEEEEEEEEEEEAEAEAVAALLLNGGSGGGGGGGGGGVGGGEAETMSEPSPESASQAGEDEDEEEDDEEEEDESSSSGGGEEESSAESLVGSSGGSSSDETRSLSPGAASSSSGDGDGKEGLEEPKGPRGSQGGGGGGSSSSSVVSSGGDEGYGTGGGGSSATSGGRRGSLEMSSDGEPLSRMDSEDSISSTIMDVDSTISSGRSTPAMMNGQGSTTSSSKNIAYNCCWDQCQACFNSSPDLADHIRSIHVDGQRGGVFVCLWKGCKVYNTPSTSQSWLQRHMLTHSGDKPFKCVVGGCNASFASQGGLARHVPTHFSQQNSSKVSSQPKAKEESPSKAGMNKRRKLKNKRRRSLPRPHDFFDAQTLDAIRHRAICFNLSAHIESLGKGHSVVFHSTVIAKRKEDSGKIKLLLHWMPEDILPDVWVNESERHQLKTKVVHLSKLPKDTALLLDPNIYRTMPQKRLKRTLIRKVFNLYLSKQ
- method-description: EZH2 methyltransferase scintillation proximity assay (SPA)
- Type: biochemical
- setup-conditions: methyltransferase activity of EZH2 in human PRC2 complex, 3H-SAM, HeLa mononucleosomes
measured-property: IC50 (nM)

| molecular-string | tested-system | measured-property | measurement |
| --- | --- | --- | --- |
| Cc1cc(C(C)C)c(CNC(=O)c2cc(-c3ccc(N4CCNCC4)nc3)cc3c2cnn3C(C)C)c(=O)[nH]1 | EZH2 within the PRC2 complex (Homo sapiens, UniProt Q15910) | IC50 | 4 |

(I) CCCc1cc(C)[nH]c(=O)c1CNC(=O)c1cc(-c2cncnc2)cc2c1cnn2C(C)C
(II) Cc1cc(Cc2ccccc2)c(CNC(=O)c2cccc3c2cnn3C(C)C)c(=O)[nH]1
Query: Pick one, I or II : lowest reported IC50. Answer with the label corresponding to your selection.
Reply: I
(I: 20 nM, II: 40 nM)
